molecular target: Somatostatin receptor type 5 (Rattus norvegicus)
Sequence (P30938 whole entry): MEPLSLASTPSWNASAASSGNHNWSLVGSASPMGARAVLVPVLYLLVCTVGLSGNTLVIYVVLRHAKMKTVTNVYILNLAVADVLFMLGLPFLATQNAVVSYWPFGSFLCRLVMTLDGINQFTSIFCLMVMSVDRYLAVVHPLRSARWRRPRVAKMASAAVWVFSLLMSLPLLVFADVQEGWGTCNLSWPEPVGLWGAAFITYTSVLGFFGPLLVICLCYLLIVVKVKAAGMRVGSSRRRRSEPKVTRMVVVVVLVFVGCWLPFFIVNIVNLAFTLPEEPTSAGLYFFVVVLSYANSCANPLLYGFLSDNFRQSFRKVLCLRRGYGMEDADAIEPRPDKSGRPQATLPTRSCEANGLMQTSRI
*1 amine or outer side, *2 acyl side, *3 side chain or, on linkers, in order; H or OH if unused. Where a SMILES comes first, the peptide text is derived from it. Bridges are numbered along the chain shown (N, C = ends). [ ]: non-standard residue; d: D form. ξ: configuration not given here. X1 = O=C(C(N[*:1])S[*:3])[*:2]; Ahp = NCCCCCCC(=O)O; ξC = NC(CS)C(=O)O; Mpa = O=C(O)CCS
assayMetric: pKi
pKi here: minus log base 10 of the concentration, concentration in moles per litre.

Reference set (3 entries):
compound	pKi
CC(C)[C@@H]1NC(=O)[C@H](CCCCN)NC(=O)[C@@H](Cc2c[nH]c3ccccc23)NC(=O)[C@H](Cc2ccc(O)cc2)NC(=O)[C@@H](NC(=O)[C@H](N)Cc2ccc3ccccc3c2)CSSC[C@@H](C(=O)N[C@H](C(N)=O)[C@@H](C)O)NC1=O	10.00
CC(C)[C@@H]1NC(=O)[C@H](CCCCN)NC(=O)[C@@H](Cc2c[nH]c3ccccc23)NC(=O)[C@H](Cc2ccc(O)cc2)NC(=O)CCSSC(C(=O)N[C@@H](Cc2ccccc2)C(N)=O)NC1=O (some centres undefined) [CAS_117580-24-2] ([Mpa]Y[dW]KV[X1]F-NH2; disulfide 1-6)	8.41
CC(C)[C@H](NC(=O)[C@H](CCCCN)NC(=O)[C@@H](Cc1c[nH]c2ccccc12)NC(=O)[C@H](Cc1ccc(O)cc1)NC(=O)[C@H](Cc1ccccc1)NC(=O)[C@H](N)Cc1ccccc1)C(=O)N[C@@H](Cc1ccccc1)C(=O)N[C@H](Cc1ccccc1)C(N)=O (H-[dF]FY[dW]KVF[dF]-NH2)	8.48

Turning now to a further record.
Response field pKi (Somatostatin receptor type 5 (Rattus norvegicus)) for item C[C@@H](O)[C@@H]1NC(=O)[C@H](CCCCN)NC(=O)[C@@H](Cc2c[nH]c3ccccc23)NC(=O)[C@H](Cc2ccccc2)NC(=O)[C@@H]2CSSCC(NC1=O)C(=O)NCCCCCCC(=O)N2 (cyclo([Ahp]CF[dW]KT[ξC]); disulfide 2-7) : 8.92

Provenance of the data: BindingDB's records for doi:10.1007/BF00173012
